Where do the numbers come from? From ChEMBL document CHEMBL2331099.

- experimental_system: Aromatase (Homo sapiens, UniProt P11511)
- Sequence (P11511 whole entry): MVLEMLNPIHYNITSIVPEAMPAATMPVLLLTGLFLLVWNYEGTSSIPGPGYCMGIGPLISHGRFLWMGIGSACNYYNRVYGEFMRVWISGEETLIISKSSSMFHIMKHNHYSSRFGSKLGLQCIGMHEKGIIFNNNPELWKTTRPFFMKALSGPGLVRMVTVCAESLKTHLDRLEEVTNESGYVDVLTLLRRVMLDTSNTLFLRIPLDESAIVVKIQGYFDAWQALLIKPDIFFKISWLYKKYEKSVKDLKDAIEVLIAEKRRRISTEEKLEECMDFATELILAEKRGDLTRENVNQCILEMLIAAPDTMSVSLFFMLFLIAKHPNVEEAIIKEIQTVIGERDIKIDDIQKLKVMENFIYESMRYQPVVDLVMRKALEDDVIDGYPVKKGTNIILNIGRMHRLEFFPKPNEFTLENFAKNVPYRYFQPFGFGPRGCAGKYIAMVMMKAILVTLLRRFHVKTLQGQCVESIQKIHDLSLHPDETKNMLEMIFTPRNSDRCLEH
- test_protocol: Ratio of letrozole IC50 to compound IC50 for human placental microsome aromatase
Ratio IC50 values, listed per item
Number, no unit, nothing else.

Solved cases below.
Cc1ccc2cc(Cn3ccnc3)n(-c3ccccc3)c2c1	0.7728
COc1ccc(-n2c(Cn3ccnc3)cc3ccc(C)cc32)cc1	0.1192
COc1ccc(-n2c(Cn3ccnc3)cc3ccccc32)cc1	0.2137

Indicate its recorded Ratio IC50; the compound in question is `Cc1ccc2cc(Cn3ccnc3)n(-c3ccc(C#N)cc3)c2c1` 0.612

Indicate its recorded Ratio IC50; the compound in question is `COc1ccc(-n2c(Cn3ccnc3)cc3ccc(Cl)cc32)cc1` 0.0813

Indicate its recorded Ratio IC50; the compound in question is `COc1ccc2cc(Cn3ccnc3)n(-c3ccc(F)cc3)c2c1` 0.3378

----------
- experimental_system: UniProt:P11511
- test_protocol: Inhibition of human placental microsome aromatase after 30 mins by ELISA
pIC50 values, listed per item
# reply with the number alone; pIC50 is -log10 of concentration in mol/L

COc1ccc2cc(Cn3ccnc3)n(-c3ccc(F)cc3)c2c1	7.31

// moving on: another record for pIC50
Under UniProt:P11511, report pIC50 for `Cc1ccc2cc(Cn3ccnc3)n(-c3ccccc3)c2c1` 7.67
